Task for the reader: assign each of the following compounds its reported Ratio IC50.
experiment.description: Selectivity ratio of IC50 for gamma secretase-mediated amyloid beta total production to IC50 for gamma secretase-mediated amyloid beta (1 to 42) production
Give only the figure.

According to the records, this compound COc1cc(-c2nnc3n([C@@H](C)c4ccc(F)cc4)cc(C#N)cc2-3)ccc1-n1cnc(C)c1 displays Ratio IC50 of 60

So, COc1cc(-c2nnc3n(C(CCS(C)(=O)=O)c4ccc(F)cc4)cc(Cl)cc2-3)ccc1-n1cnc(C)c1 (configuration not stated) ? Its Ratio IC50 was 63

Per the records, this compound ( COc1cc(-c2nnc3n([C@@H](C)c4cc(F)cc(F)c4)cccc2-3)ccc1-n1cnc(C)c1 ) has Ratio IC50 equal to 94

Ratio IC50 recorded for this compound, COc1ccc(Cn2cccc3c(-c4ccc(-n5cnc(C)c5)c(OC)c4)nnc2-3)cc1 , is 119

Data point: CC[C@@H](c1ccc(F)cc1)n1cccc2c(-c3ccc(-n4cnc(C)c4)c(OC)c3)nnc1-2 ; Ratio IC50 = 42

compound COc1cc(-c2nnc3n([C@@H](C)c4cc(F)ccc4F)cc(Cl)cc2-3)ccc1-n1cnc(C)c1 , Ratio IC50 observed: 151

Query CC[C@@H](c1cc(F)c(F)c(F)c1)n1cc(Cl)cc2c(-c3ccc(-n4cnc(C)c4)c(OC)c3)nnc1-2 yields Ratio IC50 of 463

The value of Ratio IC50 measured for the compound COc1cc(-c2nnc3n([C@@H](C)c4ccc(F)cc4)cc(C(C)(F)F)cc2-3)ccc1-n1cnc(C)c1 turned out to be 66

So, COc1cc(-c2nnc3n([C@@H](C)c4ccc(F)cc4)cc(CO)cc2-3)ccc1-n1cnc(C)c1 ? Its Ratio IC50 was 248

Measured Ratio IC50 of COc1cc(-c2nnc3n([C@@H](C)c4ccc(F)cc4)cc(CF)cc2-3)ccc1-n1cnc(C)c1 : 32

Reported Ratio IC50 of COc1cc(-c2nnc3n([C@H](C)c4ccc(F)cc4)cccc2-3)ccc1-n1cnc(C)c1 : 60

The reported Ratio IC50 of the compound COc1ccc(COCc2cc3c(-c4ccc(-n5cnc(C)c5)c(OC)c4)nnc-3n([C@@H](C)c3ccc(F)cc3)c2)cc1 was 110

Item: COc1cc(-c2nnc3n([C@@H](C)c4ccc(F)cc4)cccc2-3)ccc1-n1cnc(C)c1 | Ratio IC50: 205

// sample COc1cc(-c2nnc3n(C(C)c4ccc(F)cc4)cccc2-3)ccc1-n1cnc(C)c1 (racemic) , its Ratio IC50 was 87

Reported Ratio IC50 ( COc1cc(-c2nnc3n([C@@H](C)c4ccc(F)c(F)c4)cc(Cl)cc2-3)ccc1-n1cnc(C)c1 ) = 301

Form field Ratio IC50, entry COc1cc(-c2nnc3n([C@@H](C)c4ccc(F)cc4)cc(C(F)F)cc2-3)ccc1-n1cnc(C)c1 : 52

What the record says about COc1cc(-c2nnc3n([C@@H](CO)c4ccc(F)cc4)cc(Cl)cc2-3)ccc1-n1cnc(C)c1 : Ratio IC50 is 119

The compound identified as COc1cc(-c2nnc3n([C@@H](C)c4ccc(F)cc4)cc(C)cc2-3)ccc1-n1cnc(C)c1 registered its Ratio IC50 at 161

Please fill in: Ratio IC50 reported for COc1cc(-c2nnc3n([C@@H](C)c4ccc(F)cc4)cc(Cl)cc2-3)ccc1-n1cnc(C)c1 = 288

Entry COc1cc(-c2nnc3n([C@@H](C)c4cc(F)c(F)c(F)c4)cc(Cl)cc2-3)ccc1-n1cnc(C)c1 , Ratio IC50 reported as 186

Lab note: COc1cc(-c2nnc3n([C@@H](C)c4cc(F)cc(F)c4)cc(Cl)cc2-3)ccc1-n1cnc(C)c1 gave Ratio IC50 of 6

Ratio IC50 in this record for C=C(c1ccc(F)cc1)n1cc(Cl)cc2c(-c3ccc(-n4cnc(C)c4)c(OC)c3)nnc1-2 : 42
